// values below are reported total charge accumulated
Tested on: OPH-E. coli/S. oneidensis mixtures
Assay type: cell-based
Expressed in mA*h, but write only the number.

Exercise: Note down total charge accumulated recorded for CCOC(=O)CC(SP(=O)(OC)OC)C(=O)OCC (stereo not shown) [malaoxon]
Key: 0.068

Exercise: Note down total charge accumulated recorded for COP(=O)(OC)Oc1ccc([N+](=O)[O-])cc1 [paraoxon-methyl]
Key: 1.03

Exercise: Note down total charge accumulated recorded for CCOP(=S)(OCC)Oc1ccc([N+](=O)[O-])cc1 [parathion]
Key: 1.04

Exercise: Note down total charge accumulated recorded for CCOP(=O)(OCC)Oc1ccc([N+](=O)[O-])cc1 [paraoxon]
Key: 1.64

Entry source: patent US20240368534A1
